Reference source for all entries: paper PMC4552634

Test system: P. falciparum stage V gametocytes
Set-up: BacTiter-Glo ATP luminescence viability of purified stage V gametocytes in 384-well plates, per cent inhibition versus DMSO
Settings: 48 h, 5 µM; inhibitor
Hit rate of the full screen: of about 13,000 compounds, about 3,200 (25%) showed an effect of 50% or more. Some of the results follow.
measure: % Inhibition (%)

molecule	measurement_target	measure	reading_unit	reported_measurement
Cc1cc(C2CCN(CCCCNC(=O)c3ccc(NC(=O)c4ccc(Cl)cc4)cc3)CC2)c(C)cc1OCCN(C)C [TCMDC-138316]	P. falciparum stage V gametocytes	% Inhibition	%	117.2
O=C(/C=C/c1ccc(Cl)cc1Cl)NCCCCCN1CCC(c2c[nH]c3ccccc23)CC1 [TCMDC-139696]	P. falciparum stage V gametocytes	% Inhibition	%	89.84
CN(C)CCOc1ccc(N2CCN(CCCCNC(=O)c3ccc(NC(=O)c4ccc(Cl)cc4)cc3)CC2)cc1 [TCMDC-138289]	P. falciparum stage V gametocytes	% Inhibition	%	85.59
O=C(/C=C/c1cccc(Br)c1)NCCCCCN1CCC(c2c[nH]c3ccccc23)CC1 [TCMDC-139233]	P. falciparum stage V gametocytes	% Inhibition	%	3.439
O=C(/C=C/c1ccc2ccccc2c1)NCCCCCN1CCC(c2c[nH]c3ccccc23)CC1 [TCMDC-139206]	P. falciparum stage V gametocytes	% Inhibition	%	99.19
Cc1noc(C)c1-c1ccc(C(=C2CCCCCCC2)c2ccc(O)cc2)cc1 [TCMDC-135872]	P. falciparum stage V gametocytes	% Inhibition	%	-5.918
Cc1ccc2c(=O)n(C)c(=O)n(C)c2n1 [TCMDC-123937]	P. falciparum stage V gametocytes	% Inhibition	%	60.67
Cc1cc(C2CCN(CCCCNC(=O)c3ccc(NC(=O)c4ccc(Cl)cc4)cc3)CC2)c(C)cc1OCc1nccn1C [TCMDC-138326]	P. falciparum stage V gametocytes	% Inhibition	%	1.081

----------
System: P. falciparum stage V gametocytes
Design: BacTiter-Glo ATP luminescence viability of purified stage V gametocytes in 384-well plates, per cent inhibition versus DMSO
Details: 48 h, 5 µM; inhibitor
The campaign covered roughly 13,000 compounds. About 3,200 (25%) showed an effect of 50% or more. The list shows a part of the results.
Threshold rule: % Inhibition greater than or equal to 20% is Y; below that, N.

compound	qualitative_label
CNCc1cccc2[nH]c(-c3ccc(Cc4cc(Cl)ccc4OCC(C)C)o3)nc12	Y
CCCOC(=O)C1=C(C)NC2=C(C(=O)CC(c3ccc(OC)c(OC)c3)C2)C1c1cccc(O)c1 (centres unmarked)	Y
COc1cc2nc(N3CCN(C(=O)c4ccc(N(C(=O)OC(C)(C)C)C(=O)OC(C)(C)C)cc4)CC3)nc(N)c2cc1OC	N
CC1(C)N=C(N)NC(Nc2ccc(Cl)cc2)=N1	Y
Clc1ccc(OCc2ccccc2)c(Cc2ccc(-c3nc4ccncc4[nH]3)o2)c1	N
COc1cc2nc(N3CCN(c4nc(N)c5cc(OC)c(OC)cc5n4)CC3)nc(N)c2cc1OC	Y
CCCCCN1CCCN(Cc2cccc(NC(=O)c3ccc4ccccc4c3)c2)CC1	N
COc1cc(O)c2c(=O)c(OC)c(-c3cccc(Cl)c3OCC(=O)O)oc2c1OC	N
COc1cccc(NC(=O)NC2CCN(c3ccnc(Nc4ccc(F)cc4)n3)C2)c1 (centres unmarked)	N
COc1cc2nc(N3CCN(C(=O)c4c(Cl)nsc4-c4ccccc4Cl)CC3)nc(N)c2cc1OC.O=C(O)C(F)(F)F	Y
Cc1ccn2c(C(=O)N3CCN(c4cccc5c4nc(-c4ccoc4)n5Cc4ccccn4)CC3)c(C)nc2c1	N
O=C1C(=Cc2cc(Cc3ccccc3)ccc2O)SC(=S)N1Cc1ccccc1	N
COc1cc2nc(N3CCN(C(=O)c4cccc(I)c4)CC3)nc(N)c2cc1OC	Y
CN(C)CCNC(=O)[C@H](CC1CCCCC1)NC(=O)c1ccc(O)c(-c2ccc(Cl)c(Cl)c2)c1	Y
COc1cc2nc(N3CCN(c4cc(C)ccc4C)CC3)nc(N)c2cc1OC	N
O=C(Nc1ccc(Cl)cc1)N1CCN(C2CCCCC2)CC1	N
CC1CCC2(CC1)N=C(N)N=C(N)N2OCc1cc2ccccc2c2ccccc12 (centres unmarked)	Y
CS(=O)(=O)CCOCc1ccc(-c2ccc3ncnc(Nc4ccc(OCc5cccc(F)c5)c(Cl)c4)c3c2)o1	N
c1ccc2c(c1)ncc1c3ccccc3[nH]c21	N
C=CCc1cc(Cc2cnc(N)nc2N)c2ccc(C)nc2c1OC	N
Cc1cccc2[nH]c(-c3cccc(-c4cccc(NC(=O)NCc5ccccc5)c4)c3)nc12	N
Cc1c(F)cc(C(=O)NC2CC2)cc1-c1ccc2c(c1)c(C)nn2S(=O)(=O)c1cccs1	Y
CCC(C)OC(=O)C1=C(C)NC2=C(C(=O)CC(c3ccc(OC)c(OC)c3)C2)C1c1cccc(O)c1 (centres unmarked)	Y
CC(C)COc1ccc(Cl)cc1Cc1nc(-c2nc3ccc(CN4CCCCC4)cc3[nH]2)co1	N
Cc1cc(C)c(O)c(-c2cc(C(=O)Nc3ccc(S(=O)(=O)N4CC(C)OC(C)C4)cc3)[nH]n2)c1 (centres unmarked)	N
Cc1c(F)cc(C(=O)NC2CC2)cc1-c1ccc2c(cnn2S(=O)(=O)c2cccs2)c1	N
CC(C)COc1ccc(Cl)cc1Cc1ccc(-c2nc3c(cnc4ccccc43)[nH]2)o1	Y
CC1(C)N=C(N)N=C(N)N1OCc1cc2ccccc2cc1CON1C(N)=NC(N)=NC1(C)C	N
CC(C)COc1ccc(Cl)cc1Cc1ccc(-c2nc3c(F)c(F)ccc3[nH]2)o1	Y
Cc1nc2c(=O)sc3ccccc3c2n1Cc1ccccc1	N
COc1ccccc1Nc1nc(C)cc(NCc2ccc(-c3c(C)noc3C)cc2)n1	N
Cc1cccc2nc(-c3cccc(-c4ccc(CN5CCC(C(N)=O)CC5)cc4)c3)[nH]c12.O=C(O)C(F)(F)F	Y
